Just for reference, patent US7183267B2 is where these values come from.

target: TEM-1 β-lactamase (Escherichia coli, UniProt P62593); assay: TEM-1 β-lactamase inhibition assay (nitrocefin hydrolysis, 486 nm); assay type: biochemical; details: Ki, TEM-1 β-lactamase
Sequence (P62593 24-286 limits assumed): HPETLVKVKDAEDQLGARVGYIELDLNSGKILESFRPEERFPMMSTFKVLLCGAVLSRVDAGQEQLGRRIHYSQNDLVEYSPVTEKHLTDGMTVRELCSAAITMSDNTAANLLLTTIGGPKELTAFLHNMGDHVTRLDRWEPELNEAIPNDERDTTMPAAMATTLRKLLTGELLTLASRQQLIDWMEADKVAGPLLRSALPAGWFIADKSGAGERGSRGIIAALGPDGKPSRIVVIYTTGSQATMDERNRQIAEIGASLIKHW
measuredAttribute: pKi
Note: pKi values are expressed as the negative base-10 logarithm of concentration in M.

Recorded results for 2 compounds are shown here.
compound	pKi
O=C(Oc1c(Cl)cc(Cl)cc1Cl)c1cc(B(O)O)cc([N+](=O)[O-])c1 [Compound (1y)]	4.80
O=C(Oc1cccc(OC(=O)c2cc(B(O)O)cc([N+](=O)[O-])c2)c1)c1cc(B(O)O)cc([N+](=O)[O-])c1 [Compound (9a)]	4.79

Memo: O=C(Oc1c(Cl)cccc1[N+](=O)[O-])c1cc(B(O)O)cc([N+](=O)[O-])c1 [Compound (1h)] , reported pKi: 5.02

Memo: CC(C)(C)c1cc(OC(=O)c2cc(B(O)O)cc([N+](=O)[O-])c2)ccc1OC(=O)c1cc(B(O)O)cc([N+](=O)[O-])c1 [Compound (2d)] , reported pKi: 4.96

Memo: O=C(Oc1c(Cl)cc(Cl)cc1[N+](=O)[O-])c1cc(B(O)O)cc([N+](=O)[O-])c1 [Compound (1w)] , reported pKi: 4.90

Memo: O=C(Oc1c(F)cccc1F)c1cc(B(O)O)cc([N+](=O)[O-])c1 [Compound (1p)] , reported pKi: 4.70
